Test name: yeast display, Sf9 membrane polyspecificity reagent, FACS + sequencing; frameworks hold sequencing errors

Sequence data	polyreactivity (PSR sort gate)
QVQLVESGGGLVQAGGSLRLSCAASGSTRYYAMGWYRQAPGKERELVATISSRSRTYYADSVKGRFTISRDNAKNTVYLQMNSLKPDDPAVYYCAARRRRFYYQYYRYDYWGQGTQVTVSS	high polyreactivity
QVQLVESGGGLVQAGGSLRLSCAASGGIFIDYALGWYRQAPGKERELVAAITYSGTSTSYADSVKGRFTISRDNAKITVYLQMNSLKPEDTAVYYCNTYPVLFYVGLDYWGQGTQVTVSS	low polyreactivity
QVQLVESGGGLVQAGGSLRLSCAASGSIFSYYAMGWYRQAPGKERELVAAISRGGSTYYADSVKGRFTISRDKAKNTVYLQMNSLKPEDTAVYYCNVDSFRYRHTGYGYTRYGYWGQGTQVTVSS	high polyreactivity
QVQLVESGGGLVQAGCSLRLSCAASGRIDRRYAMGWYRQAPGKERDLFAAISSRGGRTYYADSVKGRFTISRDNAMNTVYLQMNSLKQEDTAVYYCAARPAGYGHYKYYYWGKGTQVTVSS	high polyreactivity
QVQLVESVGGLVQAGGSLRLSCAASGTIFGWYAMGWYRQAPGKEREMVATIDASGRSTFYADTVKGRFTISRDNAKNTVYLQMNSLKPEDTAVYYFNSRYPRQYWGGYDYWGQGTQVTVSS	low polyreactivity
